# System: DDR2;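 also: KINOMEscan kinase panel screen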
# PARTICULARS: concentration: 1 μM, replicates: in singlicate; n = 1
Can you tell me %Inh for the items I'm about to list?
Answers are plain numbers, in %.

- COMPOUND: "CC(C)c1nc(-c2cccc(NS(=O)(=O)c3c(F)cccc3F)c2F)c(-c2ccnc(Nc3ccc(N4CCOCC4)nc3)n2)s1"
  TARGET_OR_TEST_SYSTEM: "DDR2"
  PARAMETER_MEASURED: "%Inh"
  RECORDED_RESULT: 88

Here are 3 compounds. What values of %Inh were reported for them?
1. Cc1cccc(NC(=O)Nc2ccc(Oc3ncnc4ccn(C)c34)cc2)c1
2. COc1cccc(C(=O)Nc2cccc(Oc3ccc4nc(NC(=O)C5CC5)cn4n3)c2)c1
3. c1ccc(-c2cnc3nccnn23)cc1

a:
98.7
99.7
24

Here are 3 compounds. What values of %Inh were reported for them?
1. Cn1cc(-c2[nH]c3cc(NC(=O)[C@H](N)C4CCCCC4)cc4c3c2C=NNC4=O)cn1
2. Cc1ccc(C(=O)N2CC[C@@H](O)C2)cc1-n1c(C)cc(OCc2ccc(F)cc2F)c(Br)c1=O
3. COc1cc(Nc2nccc(N3CCC(NC(=O)c4cc5ccccc5s4)C3)n2)cc(OC)c1OC (centres unmarked)

a:
39
94.6
39

q: Give reported %Inh value for `CCn1c(-c2nonc2N)nc2c(C#CC(C)(C)O)nc(OC[C@H](N)c3ccccc3)cc21`
a: 12
